# target desc: MER (Homo sapiens)
# Sequence (Q12866 21-999): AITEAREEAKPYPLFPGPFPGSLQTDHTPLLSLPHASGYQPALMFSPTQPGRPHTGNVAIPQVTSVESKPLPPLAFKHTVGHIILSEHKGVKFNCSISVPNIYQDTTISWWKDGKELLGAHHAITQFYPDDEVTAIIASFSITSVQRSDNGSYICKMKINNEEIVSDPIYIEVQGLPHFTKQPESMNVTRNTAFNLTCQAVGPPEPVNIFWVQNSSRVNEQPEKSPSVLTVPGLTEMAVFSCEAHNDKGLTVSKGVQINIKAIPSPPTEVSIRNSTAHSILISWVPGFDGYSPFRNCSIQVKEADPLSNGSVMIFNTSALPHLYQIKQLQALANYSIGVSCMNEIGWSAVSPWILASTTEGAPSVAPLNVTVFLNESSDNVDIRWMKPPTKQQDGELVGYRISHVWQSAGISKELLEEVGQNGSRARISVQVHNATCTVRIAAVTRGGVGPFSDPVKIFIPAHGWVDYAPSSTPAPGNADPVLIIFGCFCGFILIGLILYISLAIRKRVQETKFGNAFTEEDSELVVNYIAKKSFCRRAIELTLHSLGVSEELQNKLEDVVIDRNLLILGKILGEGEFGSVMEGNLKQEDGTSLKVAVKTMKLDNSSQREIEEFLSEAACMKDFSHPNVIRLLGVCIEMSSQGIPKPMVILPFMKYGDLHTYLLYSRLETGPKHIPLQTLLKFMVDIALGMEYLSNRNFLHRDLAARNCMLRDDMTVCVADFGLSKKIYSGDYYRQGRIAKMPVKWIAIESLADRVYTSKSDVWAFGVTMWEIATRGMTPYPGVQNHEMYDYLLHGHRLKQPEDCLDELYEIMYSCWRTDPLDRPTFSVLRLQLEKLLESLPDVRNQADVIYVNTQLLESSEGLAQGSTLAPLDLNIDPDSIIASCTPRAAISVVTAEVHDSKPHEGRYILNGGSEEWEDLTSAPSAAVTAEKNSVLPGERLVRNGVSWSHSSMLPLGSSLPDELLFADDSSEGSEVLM
# test protocol: Kinase panel (mobility shift)
# Type: biochemical
Entries annotated with measured inhibition at 5 µM

{"columns": ["molecule smiles", "inhibition at 5 µM"],
 "data": [
  ["CSc1nc(C(=O)Nc2ccc(Oc3cc4cnn(C)c4cc3Br)c(F)c2)c(-c2ccc(F)cc2)o1", "< 50%"],
  ["CNC(=O)c1cc(Oc2c(F)cc(NC(=O)c3nc(NC)sc3-c3ccc(F)cc3)cc2F)ccn1", "50 to 79%"],
  ["CSc1nc(C(=O)Nc2ccc(Oc3ccnc(C(=O)NC4CCN(C)CC4)c3)c(F)c2)c(-c2ccc(F)cc2)o1", "< 50%"],
  ["CNC(=O)c1cc(Oc2ccc(NC(=O)c3nc(SC)oc3-c3ccc(F)cc3Cl)cc2)ccn1", "90 to 94%"],
  ["CNC(=O)c1cc(Oc2ccc(NC(=O)c3nc(OC)oc3-c3ccc(F)cc3)cc2F)ccn1", "50 to 79%"],
  ["CNC(=O)c1cc(Oc2ccc(NC(=O)c3nc(OC)oc3-c3ccc(F)s3)cc2F)ccn1", "< 50%"],
  ["CNC(=O)c1cc(Oc2ccc(NC(=O)c3nc(NC)oc3-c3ccc(F)s3)cc2F)ccn1", "< 50%"],
  ["CNC(=O)c1cc(Oc2ccc(NC(=O)c3nc(SC)oc3-c3ccc(Cl)s3)cc2)ccn1", "< 50%"],
  ["[2H]C([2H])([2H])NC(=O)c1cc(Oc2ccc(NC(=O)c3nc(SC)oc3-c3ccc(F)s3)cc2F)ccn1", "< 50%"],
  ["CNC(=O)c1cc(Oc2ccc(NC(=O)c3nc(COC)oc3-c3ccc(F)cc3)cc2F)ccn1", "80 to 89%"],
  ["CSc1nc(C(=O)Nc2ccc(Oc3ccnc(C(=O)NC4COC4)c3)c(F)c2)c(-c2ccc(F)s2)o1", "< 50%"],
  ["CNC(=O)c1cc(Oc2ccc(NC(=O)c3nc(OC)oc3-c3ccc(F)c(F)c3)cc2F)ccn1", "< 50%"],
  ["CNC(=O)c1cc(Oc2ccc(NC(=O)c3nc(S(C)(=O)=O)sc3-c3ccc(F)cc3)cc2F)ccn1", "80 to 89%"],
  ["CSc1nc(C(=O)Nc2ccc(Oc3ccnc(C(=O)NC4COC4)c3)c(F)c2)c(-c2ccc(F)cc2)o1", "< 50%"],
  ["CSc1nc(C(=O)Nc2ccc(Oc3ccnc(C(=O)NCCN(C)C)c3)c(F)c2)c(-c2ccc(F)cc2)o1", "50 to 79%"]
]}

###

# target desc: TYRO3 (Homo sapiens)
# Sequence (Q06418 41-890, species assumed): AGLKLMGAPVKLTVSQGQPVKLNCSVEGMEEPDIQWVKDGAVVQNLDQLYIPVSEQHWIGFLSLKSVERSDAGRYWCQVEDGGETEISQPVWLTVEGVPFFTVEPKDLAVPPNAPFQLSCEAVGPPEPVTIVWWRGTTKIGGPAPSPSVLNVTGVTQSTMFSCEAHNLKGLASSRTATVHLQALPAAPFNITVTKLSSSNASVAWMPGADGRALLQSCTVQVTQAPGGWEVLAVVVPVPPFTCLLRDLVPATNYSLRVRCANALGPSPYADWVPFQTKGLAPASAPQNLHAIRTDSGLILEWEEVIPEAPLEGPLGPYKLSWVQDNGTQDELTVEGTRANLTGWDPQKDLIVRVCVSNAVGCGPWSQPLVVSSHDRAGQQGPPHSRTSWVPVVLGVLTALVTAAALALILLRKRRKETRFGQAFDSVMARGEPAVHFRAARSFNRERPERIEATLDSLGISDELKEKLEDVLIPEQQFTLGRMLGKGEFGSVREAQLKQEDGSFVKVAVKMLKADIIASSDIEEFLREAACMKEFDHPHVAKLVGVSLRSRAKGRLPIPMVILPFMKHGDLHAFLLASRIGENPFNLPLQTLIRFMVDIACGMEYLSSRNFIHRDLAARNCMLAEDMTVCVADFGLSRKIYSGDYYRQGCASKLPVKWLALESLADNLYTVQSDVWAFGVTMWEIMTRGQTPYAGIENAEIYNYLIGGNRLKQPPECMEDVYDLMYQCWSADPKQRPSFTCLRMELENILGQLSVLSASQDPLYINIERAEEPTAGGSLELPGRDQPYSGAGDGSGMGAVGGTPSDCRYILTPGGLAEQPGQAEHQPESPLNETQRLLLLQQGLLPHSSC
# test protocol: Kinase panel (mobility shift)
# Format: biochemical
Form field: inhibition at 5 µM (one value per entry).
value kind: inhibition at 5 µM

{"columns": ["molecule smiles", "result"],
 "data": [
  ["CNC(=O)c1cc(Oc2ccc(NC(=O)c3nc(SC)oc3-c3ccc(F)c(F)c3)cc2)ccn1", "50 to 79%"],
  ["CSc1nc(C(=O)Nc2ccc(Oc3cc4cnn(C)c4cc3Br)c(F)c2)c(-c2ccc(F)cc2)o1", "< 50%"],
  ["CSc1nc(C(=O)Nc2ccc(Oc3ccnc(C(=O)NC4COC4)c3)c(F)c2)c(-c2ccc(F)c(F)c2)o1", "< 50%"],
  ["CNC(=O)c1cc(Oc2ccc(NC(=O)c3nc(SC)oc3-c3ccc(OC)cc3)cc2)ccn1", "< 50%"],
  ["CNC(=O)c1cc(Oc2ccc(NC(=O)c3nc(OC)oc3-c3ccc(F)s3)cc2F)ccn1", "50 to 79%"],
  ["CSc1nc(C(=O)Nc2ccc(Oc3ccnc(C(=O)NC4CCN(C)CC4)c3)c(F)c2)c(-c2ccc(F)cc2)o1", "< 50%"],
  ["CNC(=O)c1cc(Oc2ccc(NC(=O)c3nc(SC(C)C)oc3-c3ccc(F)cc3)cc2F)ccn1", "80 to 89%"],
  ["CNC(=O)c1cc(Oc2ccc(NC(=O)c3nc(SC)oc3-c3ccc(F)cc3Cl)cc2)ccn1", "90 to 94%"],
  ["CNC(=O)c1cc(Oc2ccc(NC(=O)c3nc(NC)oc3-c3ccc(F)cc3)cc2F)ccn1", "80 to 89%"],
  ["CSc1nc(C(=O)Nc2ccc(Oc3ccnc(-c4cnn(C)c4)c3)c(F)c2)c(-c2ccc(F)cc2)o1", "≥ 95%"],
  ["CNC(=O)c1cc(Oc2ccc(NC(=O)c3nc(NC)sc3-c3ccc(F)cc3C)cc2F)ccn1", "80 to 89%"]
]}

###

# target desc: TRKB (Homo sapiens)
# Sequence (Q16620 32-822, species assumed): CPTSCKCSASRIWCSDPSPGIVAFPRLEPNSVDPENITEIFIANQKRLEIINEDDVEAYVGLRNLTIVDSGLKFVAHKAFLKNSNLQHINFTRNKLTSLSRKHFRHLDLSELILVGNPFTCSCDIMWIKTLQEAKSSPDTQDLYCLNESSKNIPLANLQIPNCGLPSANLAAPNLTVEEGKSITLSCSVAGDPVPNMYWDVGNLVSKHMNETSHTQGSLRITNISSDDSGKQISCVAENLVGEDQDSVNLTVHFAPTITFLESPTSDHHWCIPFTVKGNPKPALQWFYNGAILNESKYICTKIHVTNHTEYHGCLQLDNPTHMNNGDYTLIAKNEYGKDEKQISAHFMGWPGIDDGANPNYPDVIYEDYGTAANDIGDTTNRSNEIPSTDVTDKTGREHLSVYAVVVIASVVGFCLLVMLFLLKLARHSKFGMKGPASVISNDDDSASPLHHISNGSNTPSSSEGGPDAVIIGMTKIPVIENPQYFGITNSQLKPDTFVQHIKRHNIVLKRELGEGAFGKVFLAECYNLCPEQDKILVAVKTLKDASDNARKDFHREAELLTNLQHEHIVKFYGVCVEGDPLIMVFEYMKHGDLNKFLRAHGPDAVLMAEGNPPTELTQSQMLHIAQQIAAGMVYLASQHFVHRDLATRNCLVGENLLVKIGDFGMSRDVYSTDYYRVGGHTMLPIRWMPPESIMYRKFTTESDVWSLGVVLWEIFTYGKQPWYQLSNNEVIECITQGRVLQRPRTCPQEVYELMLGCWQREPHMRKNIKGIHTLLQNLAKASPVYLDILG
# test protocol: Kinase panel (mobility shift)
# Assay type: biochemical
value kind: inhibition at 5 µM

{"columns": ["molecule smiles", "result"],
 "data": [
  ["COc1nc(C(=O)Nc2ccc(Oc3ccnc(C(=O)NC4COC4)c3)c(F)c2)c(-c2ccc(F)cc2)o1", "< 50%"],
  ["CSc1nc(C(=O)Nc2ccc(Oc3ccnc(C(=O)NC4CNC4)c3)c(F)c2)c(-c2ccc(F)s2)o1", "< 50%"],
  ["CNC(=O)c1ccc(Oc2ccc(NC(=O)c3nc(Cl)oc3-c3ccc(F)cc3)c(F)c2)cn1", "< 50%"],
  ["CNC(=O)c1cc(Oc2ccc(NC(=O)c3nc(NC)sc3-c3ccc(F)cc3C)cc2F)ccn1", "80 to 89%"],
  ["CSc1nc(C(=O)Nc2ccc(Oc3ccnc(-c4cnn(C)c4)c3)c(F)c2)c(-c2ccc(F)cc2)o1", "50 to 79%"],
  ["CSc1nc(C(=O)Nc2ccc(Oc3ccnc(C(=O)NC4COC4)c3)c(F)c2)c(-c2ccc(F)cc2)o1", "< 50%"],
  ["CNC(=O)c1cc(Oc2ccc(NC(=O)c3nc(OC)oc3-c3ccc(F)c(F)c3)cc2F)ccn1", "< 50%"],
  ["CNC(=O)c1cc(Oc2ccc(NC(=O)c3nc(SC)oc3-c3ccc(F)s3)cc2F)ccn1", "< 50%"],
  ["CSc1nc(C(=O)Nc2ccc(Oc3ccnc(C(=O)NC4CCN(C)CC4)c3)c(F)c2)c(-c2ccc(F)cc2)o1", "< 50%"],
  ["CNC(=O)c1cc(Oc2ccc(NC(=O)c3nc(SC)oc3-c3ccc(F)cc3Cl)cc2)ccn1", "80 to 89%"],
  ["CNC(=O)c1cc(Oc2c(F)cc(NC(=O)c3nc(NC)sc3-c3ccc(F)cc3)cc2F)ccn1", "< 50%"],
  ["CNC(=O)c1cc(Oc2ccc(NC(=O)c3nc(NC)oc3-c3ccc(F)s3)cc2F)ccn1", "50 to 79%"],
  ["CNC(=O)c1cc(Oc2ccc(NC(=O)c3nc(SC)oc3-c3ccc(F)c(F)c3)cc2)ccn1", "< 50%"],
  ["CNC(=O)c1cc(Oc2ccc(NC(=O)c3nc(NC)oc3-c3ccc(F)cc3)cc2F)ccn1", "90 to 94%"],
  ["CNC(=O)c1cc(Oc2ccc(NC(=O)c3nc(SC)oc3-c3ccc(F)cc3F)cc2F)ccn1", "80 to 89%"]
]}

###

# target desc: P38-a (Homo sapiens, UniProt Q16539)
# Sequence (Q16539 whole entry): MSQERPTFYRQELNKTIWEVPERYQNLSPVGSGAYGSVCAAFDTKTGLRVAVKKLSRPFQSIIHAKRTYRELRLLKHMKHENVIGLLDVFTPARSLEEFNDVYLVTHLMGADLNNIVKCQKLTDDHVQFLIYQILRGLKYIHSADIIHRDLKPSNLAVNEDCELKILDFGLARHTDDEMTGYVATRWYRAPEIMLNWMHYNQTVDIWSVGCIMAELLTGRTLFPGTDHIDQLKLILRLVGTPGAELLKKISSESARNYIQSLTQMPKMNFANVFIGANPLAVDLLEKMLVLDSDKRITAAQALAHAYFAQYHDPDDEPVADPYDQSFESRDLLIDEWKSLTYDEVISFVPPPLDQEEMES
# test protocol: Kinase panel (mobility shift)
# Format: biochemical
# assay context: at 5 um

{"columns": ["molecule", "inhibition of kinase activity, P38-a"],
 "data": [
  ["CSc1nc(C(=O)Nc2ccc(Oc3ccnc(-c4cnn(C)c4)c3)c(F)c2)c(-c2ccc(F)cc2)o1 [Compound 11]", "B (B=90%-94% at 5 um)"],
  ["CNC(=O)c1cc(Oc2ccc(NC(=O)c3nc(OC)oc3-c3ccc(F)c(F)c3)cc2F)ccn1 [Compound 24]", "D (category D for 50-79)"],
  ["CNC(=O)c1cc(Oc2ccc(NC(=O)c3nc(NC)oc3-c3ccc(F)cc3)cc2F)ccn1 [Compound 14]", "D (category D for 50-79)"],
  ["CNC(=O)c1cc(Oc2ccc(NC(=O)c3nc(SC(C)C)oc3-c3ccc(F)cc3)cc2F)ccn1 [Compound 34]", "C (C=80%-89% at 5 um)"],
  ["[2H]C([2H])([2H])NC(=O)c1cc(Oc2ccc(NC(=O)c3nc(SC)oc3-c3ccc(F)c(F)c3)cc2F)ccn1 [Compound 33]", "C (C=80%-89% at 5 um)"],
  ["CNC(=O)c1cc(Oc2ccc(NC(=O)c3nc(OC4CC4)oc3-c3ccc(F)cc3)cc2F)ccn1 [Compound 32]", "D (category D for 50-79)"],
  ["CNC(=O)c1cc(Oc2ccc(NC(=O)c3nc(SC)oc3-c3ccc(F)cc3F)cc2F)ccn1 [Compound 12]", "D (category D for 50-79)"],
  ["CNC(=O)c1cc(Oc2ccc(NC(=O)c3nc(C4CC4)oc3-c3ccc(F)cc3)cc2F)ccn1 [Compound 26]", "B (B=90%-94% at 5 um)"],
  ["CNC(=O)c1cc(Oc2c(F)cc(NC(=O)c3nc(NC)sc3-c3ccc(F)cc3)cc2F)ccn1 [Compound 19]", "D (category D for 50-79)"]
]}
